These entries and their values trace back to the kinase profiling compilation of Christmann-Franck et al. (2016).

# system under test: MAPK12 (human) (UniProt P53778)
# Sequence (P53778 whole entry, looked up): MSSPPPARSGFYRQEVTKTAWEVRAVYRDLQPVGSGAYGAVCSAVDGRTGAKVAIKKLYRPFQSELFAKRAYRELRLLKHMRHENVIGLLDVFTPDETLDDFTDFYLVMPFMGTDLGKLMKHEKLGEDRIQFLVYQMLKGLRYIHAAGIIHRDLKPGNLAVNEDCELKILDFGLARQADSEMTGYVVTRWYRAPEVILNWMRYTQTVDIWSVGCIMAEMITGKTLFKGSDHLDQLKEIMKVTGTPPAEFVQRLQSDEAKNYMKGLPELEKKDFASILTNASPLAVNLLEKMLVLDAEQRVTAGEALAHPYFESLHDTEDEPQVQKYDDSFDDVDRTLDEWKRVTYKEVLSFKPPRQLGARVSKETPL
# test: radiometric filter-binding kinase assay, Kinase HotSpot
# recorded conditions: compound 0.5 µM; ATP 10 µM
Can you tell me residual activity for the items I'm about to list?
# unit: % | format: bare number

Give its residual activity value. Item: CCc1nc(-c2ccc(OC)cc2)[nH]c1-c1ccncc1
104

Give its residual activity value. Item: O=c1cc(N2CCOCC2)oc2c(-c3ccccc3)cccc12
104

Give its residual activity value. Item: O=C(c1ccccc1)c1ccc(N2CCOCC2)cc1O
100

Give its residual activity value. Item: CCOc1cc2ncnc(Nc3cccc(Br)c3)c2cc1OCC
105

Give its residual activity value. Item: O=c1[nH]c2ccccc2n1C1CCN(Cc2ccc(-c3nc4cc5[nH]cnc5cc4nc3-c3ccccc3)cc2)CC1
93.1

Give its residual activity value. Item: O=C(O)c1ccc2c3c1cccc3c(=O)n1c3ccccc3nc21
103

Give its residual activity value. Item: c1ccc(-c2cnc(Nc3ccc(OCCN4CCCC4)cc3)s2)cc1
93.6

Give its residual activity value. Item: N/C(=N\N=C/c1ccc(-c2cccc([N+](=O)[O-])c2)o1)N[N+](=O)[O-]
93.4

Give its residual activity value. Item: O=c1c(-c2ccc(F)cc2)c(-c2ccncc2)[nH]n1-c1ccc(Cl)cc1
85.2

Give its residual activity value. Item: COc1cc2c(N3CCN(C(=O)Nc4ccc(OC(C)C)cc4)CC3)ncnc2cc1OCCCN1CCCCC1
96.4
